All values here come from PubChem BioAssay (NCI).

System: OVCAR-5 ovarian
Assay: NCI-60 one-dose screen, 48 h (100 = growth as untreated, 0 = no growth, -100 = all killed)
Details: 10 µM
Description: Growth inhibition of the OVCAR-5 human tumor cell line is measured as a screen for anti-cancer activity. Cells are grown in 96 well plates and exposed to the test compound for 48 hours. Compounds are tested at a single concentration, which is 10^-5 M for most compounds. The reported endpoint is percent growth (GI% or GIPRCNT), where numbers from 0 - 100% represent growth inhibition, and numbers from -100% - 0 represent cell death. For example, a value of 40 represents 60% growth inhibition. […]
Compounds without any hit were thinned out: in the full panel of roughly 83,000, 20% have a hit.
Classify by measured growth: Yes if it is equal to or exceeds 80%, No if it is smaller.

See these solved cases before continuing.
Q: Quick check: does CC1(C)[C@@H](NCO)CC[C@]2(C)[C@H]3C(=O)C=C4[C@@H]5C[C@](C)(CO)CC[C@]5(C)CC[C@@]4(C)[C@]3(C)CC[C@@H]12 have growth greater than or equal to 80%?
Result: No

Q: Try this compound too: CC1(c2ccccc2)NC(=O)N(CC(=O)Nc2ccc(C(=O)/C=C/C=C/c3ccccc3)cc2)C1=O (stereo not given)
Result: Yes

Q: Try this compound too: COc1ccc2[nH]cc(/C=N/Nc3cccc(Cl)n3)c2c1
Result: No

Q: Try this compound too: O=c1[nH]n(C(=S)N/N=C/c2ccc(F)cc2)c(=O)c2ccccc12
Result: Yes

Q: Try this compound too: O=C(c1ccc(Cl)cc1)C1[C@H](c2ccc(Br)cc2)[C@@H](c2ccccc2)NC12C(=O)Nc1ccccc12 (stereo not given in full)
Result: No

More entries:
Q: Quick check: does CC(=O)Nc1ccc(-c2cn(-c3cccc(C(=O)Nc4cc(C(F)(F)F)cc(C(F)(F)F)c4)c3)nn2)cn1 have growth greater than or equal to 80%?
Result: No

Q: Try this compound too: C/C(=C\c1ccc(O)cc1O)c1ccc2ccc(O)cc2[o+]1
Result: Yes

Q: Try this compound too: CC(=O)NS(=O)(=O)c1ccc(NC(=O)CSC2=NC(c3ccccc3)C(C(C)=O)=C(C)N2)cc1 (stereo not given)
Result: Yes

Q: Try this compound too: O=C(/C=C/Nc1ccc(F)cc1F)c1ccc2c(c1)Nc1ccccc1S2
Result: Yes

Q: Try this compound too: COc1cc(/C=N/NC(=O)c2ccc3nc(-c4ccc(Cl)cc4)[nH]c3c2)cc(OC)c1OC
Result: No
